Test system: ACHN
assay protocol: NCI tumour cell line growth inhibition, 48 h
Activity calls are given as the source filed them. No stated cut-off is given here; in the data, active = GI50 up to about 1.1 µM and inactive = higher. Square brackets hold non-standard residues; d marks the D form. Peptide text beside a SMILES is read from it. * marks the point of attachment. Phe(4-NO2) = N[CH](Cc1ccc([N+](=O)[O-])cc1)C(=O)O; Boc = CC(C)(C)OC(=O)*
Give your call using only these classes: yes (1) (active), no (0) (inactive)

Prompt line: Called result for `Cc1ccc2c(c1)nc(N)n[n+]2[O-]`
Response line: no (0)

Prompt line: Next up: `COc1ncc(C#CC(=O)c2ccccc2)c(OC)n1`
Response line: no (0)

Prompt line: Lookup CCOP(=O)(OCC)C(Nc1cccc([N+](=O)[O-])c1)c1ccccc1 (stereo not drawn)
Response line: no (0)

Prompt line: Entry to check: `O=S(=O)(Nc1nc2ccccc2nc1Nc1cccc2ccccc12)c1ccccc1`
Response line: no (0)

Prompt line: Now the same for `S=C(NN=C1NCCCCN1)Nc1ccc(Cl)cc1`
Response line: no (0)

Prompt line: Now the same for `Cc1nc(-c2nc(C)c(C(=O)/C=C/c3ccc(N(C)C)cc3)s2)sc1C(=O)/C=C/c1ccc(N(C)C)cc1`
Response line: no (0)

Prompt line: Try this compound too: `Cc1ccc(C)c(COCCOCn2cc(Br)c(N)nc2=O)c1`
Response line: no (0)

Prompt line: Input `N#Cc1c2c(c(Nc3ccc(F)cc3)n3c1nc1ccccc13)CCC2`
Response line: no (0)

Prompt line: What do we get for `COc1ccc(Nc2nc3cc(C(F)(F)F)ccc3n3cccc23)cc1OC` ?
Response line: no (0)

Prompt line: What do we get for N#CC1CNC(N)NC1N (stereo not drawn) ?
Response line: no (0)

Prompt line: // same read-out, input: `CC(C)C(=O)NS(=O)(=O)c1ccccc1`
Response line: no (0)

Prompt line: Record: CCc1cccc(C(C)C)c1NC(=O)C(=O)C(CC(=O)Nc1ccc(Cl)c(Cl)c1)C(=O)OC (stereo not drawn)
Response line: no (0)

Prompt line: Also `O=[N+]([O-])/C=C/c1ccc2ccccc2c1` , if possible.
Response line: no (0)

Prompt line: Would you kindly repeat that for CCCCC1c2c([nH]c3ccccc23)C2C(=O)N(c3ccc(OC)cc3)C(=O)C2C1CCC (stereo not drawn) ?
Response line: no (0)

Prompt line: Param item: `Nc1c(-c2ccccc2)c2ccc([N+](=O)[O-])cc2c(=O)n1-c1cccc(C(=O)O)c1`
Response line: no (0)

Prompt line: Entry to check: `Cn1c(CO)ccc1-c1ccc(-c2ccc[se]2)[se]1`
Response line: no (0)

Prompt line: What would you report for `CCN(CC)Cc1cc(Nc2ccnc3ccc4c(nnn4C)c23)ccc1O` ?
Response line: no (0)

Prompt line: Try this compound next: O=C(O)C1=NN(c2ccc(S(=O)(=O)O)cc2)C2(C1)SCC(=O)N2c1nc2ccccc2s1 (stereo not drawn)
Response line: no (0)

Prompt line: // next record Cc1cc2c(cc1Br)C1(C)CCC(C)C1(C)O2 (stereo not drawn)
Response line: no (0)

Prompt line: How about `COc1cc(Cn2c(=S)ss/c2=N\C(=S)N(C)C)cc(OC)c1OC` ?
Response line: no (0)

Prompt line: What do you have for CNC(=O)CCC(NC(=O)OC(C)(C)C)C(=O)NC(Cc1ccc([N+](=O)[O-])cc1)C(=O)NCC(=O)NC (stereo not drawn) (Boc-Glu(NHMe)-[Phe(4-NO2)]-Gly-NHMe; configuration not given here) ?
Response line: no (0)

Prompt line: Param item: CC(O)C1(CNc2cc(Cl)nc(N)n2)CC(CCc2ccccc2)C1 (stereo not drawn)
Response line: no (0)

Prompt line: Same question for CCOC(=O)C1(C(=O)OCC)CCC(C(OC)OC)C(CC(=O)OC)C1 (stereo not drawn) please.
Response line: no (0)

Prompt line: Quick one: Clc1ccc(C2=Nc3ccccc3SC(c3cccs3)C2)cc1 (stereo not drawn)
Response line: no (0)

Prompt line: # iterate: `c1ccc2c(Cc3c[nH]c4ccccc34)c[nH]c2c1`
Response line: no (0)

Prompt line: Repeat with CCCC(=O)NC1CCc2cc(OC)c(OC)c(OC)c2-c2ccc(OC)c(=O)cc21 (stereo not drawn)
Response line: yes (1)

Prompt line: How about `O=C1C=CC(=O)c2nc3c(cc21)CCC3` ?
Response line: no (0)

Prompt line: Same again, this time with `CC(C)(C)OC(=O)NCC(CNC(=O)OC(C)(C)C)c1nc(C(N)=O)cs1`
Response line: no (0)

Prompt line: For `COC(=O)C1=C(C(=O)OC)SC(=CC#CC=C2SC(C(=O)OC)=C(C(=O)OC)S2)S1` then?
Response line: no (0)

Prompt line: // query: `CC(C)OP(=O)(NC(=S)c1ccccc1)OC(C)C`
Response line: no (0)

Prompt line: And `O=c1[nH]nc(-c2ccc3ccccc3c2)[nH]1` ?
Response line: no (0)

Prompt line: Again, but for O=C(O)C1C(=O)Oc2c(cccc2[N+](=O)[O-])C1O (stereo not drawn)
Response line: no (0)

Prompt line: Also `C/C(=N\NC(=S)NC(C)C)c1nc2cccnc2[nH]1` ?
Response line: no (0)

Prompt line: How about `Cc1c(C(=O)Nc2ccc(Cl)c(C(F)(F)F)c2)oc2cc(O)ccc2/c1=N\NC(N)=S` ?
Response line: no (0)

Prompt line: // same read-out, input: CCCCCCCCC[C@@H]1C[C@@H]2CCC3C(C(=O)OC)=C(C)N=C(N1)N32 (stereo partly drawn)
Response line: no (0)

Prompt line: Next: `CCCN(CCC)C(=O)c1c(N2CCN(C)CC2)c2cccnc2n2c(C)cnc12`
Response line: no (0)

Prompt line: Next: `O=C1c2ccccc2C(=O)N1c1ccc(OCCN2CCCCC2)cc1`
Response line: no (0)

Prompt line: Queued: `COc1ccc(/N=C2/C(=N/c3ccc(OC)cc3)N(c3ccccc3)C(=S)N2N=C=C2Sc3ccccc3N2C)cc1`
Response line: no (0)

Prompt line: Same question for `CCCC(c1cc(C(C)(C)C)c(O)cc1C)c1cc(C(C)(C)C)c(O)cc1C` please.
Response line: no (0)

Prompt line: Also check `COc1ccc2c(c1)[n+]([O-])c(-c1nc3ccccc3s1)c(N)[n+]2[O-]`
Response line: no (0)

Prompt line: // next record `N#CCc1nc(O)c2ccccc2n1`
Response line: no (0)

Prompt line: Same question for Nc1ccc(C(=O)NN2C(=O)C(Cl)C2c2ccc([N+](=O)[O-])cc2)cc1 (stereo not drawn) please.
Response line: no (0)

Prompt line: What about this compound? `COc1cc2c(cc1OC)-c1cc3cc(OC)c(OC)cc3n1CC2`
Response line: no (0)

###

Tested on: SF-295
assay protocol: NCI tumour cell line growth inhibition, 48 h
The source made the active and inactive calls. Rule as the data show it: active = GI50 up to about 1.1 µM and inactive = higher.
So I've got a bunch of molecules here, and I need their GI50 values.

Prompt line: Look up GI50 with SF-295 for this molecule: `Cc1ccc(Nc2nc(=O)[nH]c(=O)[nH]2)cc1N`
Response line: > 100 µM (inactive)

Prompt line: Please do the same for O=C1CC(c2ccco2)C2(C(=O)NC(=O)NC2=O)C(c2ccco2)C1 (stereo not given) as well.
Response line: > 75 µM (inactive)

Prompt line: Note, next up: COCC12CCC(OC)C34C5CC6(O)C(OC)CC(OC(C)=O)(C5C6OC(=O)c5ccccc5)C(C(OC)C13)C4N(C)C2 (stereo not given)
Response line: > 100 µM (inactive)

Prompt line: Also check `Cc1ccccc1N(CC(=O)O)S(=O)(=O)c1ccccc1`
Response line: > 100 µM (inactive)

Prompt line: Continue with `Cn1c(=O)c2c(nc(Nc3ccc(Cl)cc3)n3c(=O)n(-c4ccccc4)c(=O)n23)n(C)c1=O`
Response line: > 100 µM (inactive)

###

Test system: CCRF-CEM
assay protocol: NCI tumour cell line growth inhibition, 48 h
Active and inactive are the calls of the source. No stated cut-off is given here; in the data, active = GI50 up to about 1.1 µM and inactive = higher.
property name: GI50

Prompt line: Which value of GI50 has been reported for `O=c1[nH]nc(-c2ccc3ccccc3c2)[nH]1` in the records?
Response line: > 100 µM (inactive)

Prompt line: Entry `O=C1c2ccccc2C(=O)N1c1ccc(OCCN2CCCCC2)cc1` please
Response line: > 100 µM (inactive)

Prompt line: Try the compound `CCOC(=O)c1cc(/C=C/C(C)=C/C(=O)OC)oc1C`
Response line: > 100 µM (inactive)

Prompt line: Now give it for `c1ccc(CSC2(SCc3ccccc3)CCCCC2)cc1` too.
Response line: > 10 µM (inactive)

Prompt line: Another compound to check: COC(=O)/C=C(C)/C=C\COC1CCCCO1 (stereo not given)
Response line: > 100 µM (inactive)

Prompt line: Try this compound next: N#CC(/C(=N/NC(=O)C(=O)NN)C(=O)NC12CC3CC(CC(C3)C1)C2)c1ccccc1 (stereo not given)
Response line: > 100 µM (inactive)

Prompt line: # repeat for `CCOC(=O)c1csc(NC(=O)CN2CCOCC2)n1`
Response line: > 100 µM (inactive)

Prompt line: What about Cc1ccc(S(=O)(=O)OCCC2CN(C(=O)OCc3ccccc3)C(C)(C)O2)cc1 (stereo not given) ?
Response line: 14.4 µM (inactive)

Prompt line: How about `CCCc1c2c([nH]c(=O)c1C)C(=O)c1[nH]c(=O)c(C)c(CCC)c1C2=O` ?
Response line: 21.7 µM (inactive)

Prompt line: Try the compound `O=S(=O)([C-]([I+]c1ccccc1)S(=O)(=O)C(F)(F)C(F)(F)C(F)(F)C(F)(F)F)C(F)(F)C(F)(F)C(F)(F)C(F)(F)F`
Response line: 4.06 µM (inactive)
